The reported measurements were obtained from patent US20190064177A1.

# System: diaphorase
# assay_notes: fluorescently labeled diaphorase binding to peptide array with or without excess FAD
# condition: 1 micromolar labeled diaphorase, excess FAD present; 65535 is detector saturation
# note: exactly 4000 is not below, so it is 0; use 1 for 1 microM FAD (array fluorescence of bound diaphorase) strictly under it

Some entries whose results are on file:
RNWYGGSG [array peptide with C-terminal GSG linker]: 1
RFKYPLDGGSG [array peptide with C-terminal GSG linker]: 1
RYYPAFSGGSG [array peptide with C-terminal GSG linker]: 0
LAKQNRVEDGSS (LAKQNRVEDGSG) [array peptide with C-terminal GSG linker]: 1
LDRLGEYQFSGSG [array peptide with C-terminal GSG linker]: 1

Does this sequence meet the criterion 1 microM FAD (array fluorescence of bound diaphorase) < 4000? RPLQVQRGGSG [array peptide with C-terminal GSG linker]
0

I'd appreciate it if you could check whether AFYGLELGGSG [array peptide with C-terminal GSG linker] has 1 microM FAD (array fluorescence of bound diaphorase) smaller than 4000.
0

Is 4000 strictly greater than the sequence's reported 1 microM FAD (array fluorescence of bound diaphorase)? sequence: PRYSGQYGGSG [array peptide with C-terminal GSG linker]
1
